- System: 317291-083-R-J1-PDC complex spheroid growth;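 further: compound exposure lasted seven days after spheroids formed for three days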
- test name: Anticancer human tumor 317291-083-R-J1-PDC patient-derived soft tissue sarcoma cell line growth inhibition [Asc]; active means viability on the fitted dose curve at most 10% of control; inactive means the rest
- condition details: second compound 0.01 µM; first compound 10 µM
Output constraint: value belongs to TRUE (active), FALSE (inactive)

C#Cc1c(F)ccc2cc(O)cc(-c3ncc4c(N5CC6CCC(C5)N6)nc(OCC56CCCN5CC(F)C6)nc4c3F)c12 (centres undefined) + CNC(C)C(=O)NC1CN(S(=O)(=O)c2cccc(S(=O)(=O)N3CCC4CCC(C(=O)NC(c5ccccc5)c5ccccc5)N4C(=O)C(NC(=O)C(C)NC)C3)c2)CCC2CCC(C(=O)NC(c3ccccc3)c3ccccc3)N2C1=O: FALSE
O=C(c1cc(Cc2n[nH]c(=O)c3ccccc23)ccc1F)N1CCN(C(=O)C2CC2)CC1 + CNC(C)C(=O)NC1CN(S(=O)(=O)c2cccc(S(=O)(=O)N3CCC4CCC(C(=O)NC(c5ccccc5)c5ccccc5)N4C(=O)C(NC(=O)C(C)NC)C3)c2)CCC2CCC(C(=O)NC(c3ccccc3)c3ccccc3)N2C1=O: FALSE
C=C(F)C(=O)N1CCN(c2nc(OCC3CCCN3C)nc3c2CCN(c2cccc4cccc(Cl)c24)C3)CC1CC#N (centres undefined) + CNC(C)C(=O)NC1CN(S(=O)(=O)c2cccc(S(=O)(=O)N3CCC4CCC(C(=O)NC(c5ccccc5)c5ccccc5)N4C(=O)C(NC(=O)C(C)NC)C3)c2)CCC2CCC(C(=O)NC(c3ccccc3)c3ccccc3)N2C1=O: TRUE

Tell me the assay call for C=CC(=O)N1CCN(c2nc(=O)n(-c3c(C)ccnc3C(C)C)c3nc(-c4c(O)cccc4F)c(F)cc23)C(C)C1 (centres undefined) + CNC(C)C(=O)NC1CN(S(=O)(=O)c2cccc(S(=O)(=O)N3CCC4CCC(C(=O)NC(c5ccccc5)c5ccccc5)N4C(=O)C(NC(=O)C(C)NC)C3)c2)CCC2CCC(C(=O)NC(c3ccccc3)c3ccccc3)N2C1=O please.
FALSE
